- EXPERIMENTAL_SYSTEM: T1, CD3 epsilon homodimer protein (UniProt P07766 23-126)
- T1 construct: also called CD3 (CD3 epsilon)
- T1 sequence (P07766 23-126): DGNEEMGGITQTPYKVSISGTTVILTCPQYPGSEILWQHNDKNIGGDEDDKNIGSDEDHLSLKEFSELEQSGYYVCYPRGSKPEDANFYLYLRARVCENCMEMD
- ASSAY: SPR, antibody over immobilised CD3e homodimer;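 note: SPR at 25 °C with CD3 epsilon homodimer amine-coupled to a CM4 sensor chip and antibody flowed over as analyte in HBS-EP+ running buffer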
The reader will find reported KD ratio to GLS3000 values listed item by item below.
RESULT_TYPE: KD ratio to GLS3000

{"BINDER": "CE115HA000/GLS3000 Q27D (antibody, IgG1, name in Kabat numbering, V domains shown, one-arm IgG1) VH: QVQLVESGGGVVQPGRSLRLSCAASGFTFSNAWMHWVRQAPGKGLEWVAQIKAKSNNYATYYAESVKGRFTISRDDSKNSLYLQMNSLKTEDTAVYYCRYVHYGAYYGVDAWGQGTTVTVSS VL: DIVMTQSPLSLPVTPGEPASISCRSSDSLVHSNRNTYLHWYQQKPGQAPRLLIYKVSNRFSGVPDRFSGSGSGTDFTLKISRVEAEDVGVYYCGQGTQVPYTFGQGTKLEIK", "TEST_RESULT": 0.89}
{"BINDER": "CE115HA000/GLS3000 N30W (antibody, IgG1, name in Kabat numbering, V domains shown, one-arm IgG1) VH: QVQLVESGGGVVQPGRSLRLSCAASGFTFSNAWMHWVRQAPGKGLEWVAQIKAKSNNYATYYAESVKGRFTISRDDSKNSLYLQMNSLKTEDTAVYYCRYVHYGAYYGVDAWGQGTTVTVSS VL: DIVMTQSPLSLPVTPGEPASISCRSSQSLVHSNRWTYLHWYQQKPGQAPRLLIYKVSNRFSGVPDRFSGSGSGTDFTLKISRVEAEDVGVYYCGQGTQVPYTFGQGTKLEIK", "TEST_RESULT": 0.97}
{"BINDER": "CE115HA000/GLS3000 R24S (antibody, IgG1, name in Kabat numbering, V domains shown, one-arm IgG1) VH: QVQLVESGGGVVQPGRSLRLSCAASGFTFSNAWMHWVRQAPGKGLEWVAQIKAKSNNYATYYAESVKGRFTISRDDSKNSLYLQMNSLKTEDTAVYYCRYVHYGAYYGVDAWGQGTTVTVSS VL: DIVMTQSPLSLPVTPGEPASISCSSSQSLVHSNRNTYLHWYQQKPGQAPRLLIYKVSNRFSGVPDRFSGSGSGTDFTLKISRVEAEDVGVYYCGQGTQVPYTFGQGTKLEIK", "TEST_RESULT": 0.97}
{"BINDER": "CE115HA000/GLS3000 R29G (antibody, IgG1, name in Kabat numbering, V domains shown, one-arm IgG1) VH: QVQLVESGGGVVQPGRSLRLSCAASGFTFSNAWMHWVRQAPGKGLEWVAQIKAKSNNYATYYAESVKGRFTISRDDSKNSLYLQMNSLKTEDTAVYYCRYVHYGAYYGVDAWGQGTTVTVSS VL: DIVMTQSPLSLPVTPGEPASISCRSSQSLVHSNGNTYLHWYQQKPGQAPRLLIYKVSNRFSGVPDRFSGSGSGTDFTLKISRVEAEDVGVYYCGQGTQVPYTFGQGTKLEIK", "TEST_RESULT": 0.62}
{"BINDER": "CE115HA000/GLS3000 V94Q (antibody, IgG1, name in Kabat numbering, V domains shown, one-arm IgG1) VH: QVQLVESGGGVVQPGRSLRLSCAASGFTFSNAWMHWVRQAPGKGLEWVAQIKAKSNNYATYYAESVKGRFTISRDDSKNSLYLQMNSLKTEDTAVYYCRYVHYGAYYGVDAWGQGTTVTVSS VL: DIVMTQSPLSLPVTPGEPASISCRSSQSLVHSNRNTYLHWYQQKPGQAPRLLIYKVSNRFSGVPDRFSGSGSGTDFTLKISRVEAEDVGVYYCGQGTQQPYTFGQGTKLEIK", "TEST_RESULT": 1.1}

Data provenance is patent US20210388087A1.
